The values you see were collected from paper PMC3961306.

measurement_target: panel of more than 300 wild-type and mutant kinases (313 kinase panel) (Homo sapiens, UniProt Q9UKE5)
Sequence (Q9UKE5 whole entry, change not shown): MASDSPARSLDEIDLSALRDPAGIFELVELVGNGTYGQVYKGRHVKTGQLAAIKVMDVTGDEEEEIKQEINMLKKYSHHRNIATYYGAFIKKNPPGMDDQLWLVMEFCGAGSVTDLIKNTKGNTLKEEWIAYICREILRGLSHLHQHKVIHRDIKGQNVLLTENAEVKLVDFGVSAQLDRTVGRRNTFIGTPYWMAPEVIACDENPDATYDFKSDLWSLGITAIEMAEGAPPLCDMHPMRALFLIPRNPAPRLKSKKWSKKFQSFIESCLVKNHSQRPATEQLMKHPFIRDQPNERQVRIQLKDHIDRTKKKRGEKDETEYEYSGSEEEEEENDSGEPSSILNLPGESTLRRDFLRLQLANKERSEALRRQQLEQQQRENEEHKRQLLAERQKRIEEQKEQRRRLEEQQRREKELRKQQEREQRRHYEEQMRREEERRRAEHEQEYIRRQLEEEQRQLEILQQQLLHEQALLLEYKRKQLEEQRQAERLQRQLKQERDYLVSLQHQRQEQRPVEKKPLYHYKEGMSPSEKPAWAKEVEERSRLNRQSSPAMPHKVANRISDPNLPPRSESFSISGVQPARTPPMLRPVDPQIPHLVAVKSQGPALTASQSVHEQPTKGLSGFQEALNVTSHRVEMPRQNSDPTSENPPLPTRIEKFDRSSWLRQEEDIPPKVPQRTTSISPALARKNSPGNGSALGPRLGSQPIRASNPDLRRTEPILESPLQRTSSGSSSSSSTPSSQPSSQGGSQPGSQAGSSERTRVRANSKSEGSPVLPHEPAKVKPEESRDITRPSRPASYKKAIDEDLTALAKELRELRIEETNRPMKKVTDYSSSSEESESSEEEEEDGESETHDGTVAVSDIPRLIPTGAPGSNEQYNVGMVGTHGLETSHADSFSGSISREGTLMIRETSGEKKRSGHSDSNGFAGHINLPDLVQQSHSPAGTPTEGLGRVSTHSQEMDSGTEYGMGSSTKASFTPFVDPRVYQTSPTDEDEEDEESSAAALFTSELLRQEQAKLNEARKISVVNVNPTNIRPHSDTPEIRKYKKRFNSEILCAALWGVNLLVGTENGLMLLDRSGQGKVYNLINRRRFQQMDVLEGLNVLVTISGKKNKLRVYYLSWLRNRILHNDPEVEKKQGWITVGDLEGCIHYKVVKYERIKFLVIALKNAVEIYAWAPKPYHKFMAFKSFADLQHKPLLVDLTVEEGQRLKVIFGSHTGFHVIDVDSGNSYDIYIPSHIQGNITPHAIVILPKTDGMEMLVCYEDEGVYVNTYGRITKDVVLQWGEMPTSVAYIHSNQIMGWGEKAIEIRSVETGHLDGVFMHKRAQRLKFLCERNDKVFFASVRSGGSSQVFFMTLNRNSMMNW
assay_overview: Kinase profiling in a biochemical assay panel (mobility shift assays and ELISA), %-inhibition at 1 μM; selectivity entropy
run_parameters: kinase TNIK; 1 μM
%-inhibition of TNIK for assorted compounds
result_type: %-inhibition of TNIK (%)

{"compound": "O=S(=O)(c1cccc2cnccc12)N1CCCNCC1", "result_type": "%-inhibition of TNIK", "result": 4}
{"compound": "CC(=O)Nc1cccc(-n2c(=O)n(C3CC3)c(=O)c3c(Nc4ccc(I)cc4F)n(C)c(=O)c(C)c32)c1", "result_type": "%-inhibition of TNIK", "result": 3}
{"compound": "CCCS(=O)(=O)Nc1ccc(F)c(C(=O)c2c[nH]c3ncc(-c4ccc(Cl)cc4)cc23)c1F", "result_type": "%-inhibition of TNIK", "result": 33}
{"compound": "CC(C)(C)c1nc(-c2cccc(NS(=O)(=O)c3c(F)cccc3F)c2F)c(-c2ccnc(N)n2)s1", "result_type": "%-inhibition of TNIK", "result": 15}
{"compound": "COc1cc(Nc2c(C#N)cnc3cc(OCCCN4CCN(C)CC4)c(OC)cc23)c(Cl)cc1Cl", "result_type": "%-inhibition of TNIK", "result": 102}
{"compound": "COc1cc2nccc(Oc3ccc(NC(=O)C4(C(=O)Nc5ccc(F)cc5)CC4)cc3)c2cc1OC [cabozantinib]", "result_type": "%-inhibition of TNIK", "result": 16}
{"compound": "CO[C@H]1C[C@@H]2CC[C@@H](C)[C@@](O)(O2)C(=O)C(=O)N2CCCC[C@H]2C(=O)O[C@H]([C@H](C)C[C@@H]2CC[C@@H](OCCO)[C@H](OC)C2)CC(=O)[C@H](C)/C=C(\\C)[C@@H](O)[C@@H](OC)C(=O)[C@H](C)C[C@H](C)/C=C/C=C/C=C/1C", "result_type": "%-inhibition of TNIK", "result": -3}
{"compound": "CCN(CC)CCNC(=O)c1c(C)[nH]c(/C=C2\\C(=O)Nc3ccc(F)cc32)c1C", "result_type": "%-inhibition of TNIK", "result": 94}
{"compound": "Cc1cn(-c2cc(NC(=O)c3ccc(C)c(Nc4nccc(-c5cccnc5)n4)c3)cc(C(F)(F)F)c2)cn1", "result_type": "%-inhibition of TNIK", "result": 11}
{"compound": "Cc1ccc(C(=O)Nc2ccc(CN3CCN(C)CC3)c(C(F)(F)F)c2)cc1C#Cc1cnc2cccnn12", "result_type": "%-inhibition of TNIK", "result": 96}
{"compound": "CNC(=O)c1cc(Oc2ccc(NC(=O)Nc3ccc(Cl)c(C(F)(F)F)c3)c(F)c2)ccn1", "result_type": "%-inhibition of TNIK", "result": 42}

* * *

measurement_target: panel of more than 300 wild-type and mutant kinases (313 kinase panel) (Homo sapiens, UniProt Q9UM73, R1275Q)
Sequence (Q9UM73 19-1620 R1275Q): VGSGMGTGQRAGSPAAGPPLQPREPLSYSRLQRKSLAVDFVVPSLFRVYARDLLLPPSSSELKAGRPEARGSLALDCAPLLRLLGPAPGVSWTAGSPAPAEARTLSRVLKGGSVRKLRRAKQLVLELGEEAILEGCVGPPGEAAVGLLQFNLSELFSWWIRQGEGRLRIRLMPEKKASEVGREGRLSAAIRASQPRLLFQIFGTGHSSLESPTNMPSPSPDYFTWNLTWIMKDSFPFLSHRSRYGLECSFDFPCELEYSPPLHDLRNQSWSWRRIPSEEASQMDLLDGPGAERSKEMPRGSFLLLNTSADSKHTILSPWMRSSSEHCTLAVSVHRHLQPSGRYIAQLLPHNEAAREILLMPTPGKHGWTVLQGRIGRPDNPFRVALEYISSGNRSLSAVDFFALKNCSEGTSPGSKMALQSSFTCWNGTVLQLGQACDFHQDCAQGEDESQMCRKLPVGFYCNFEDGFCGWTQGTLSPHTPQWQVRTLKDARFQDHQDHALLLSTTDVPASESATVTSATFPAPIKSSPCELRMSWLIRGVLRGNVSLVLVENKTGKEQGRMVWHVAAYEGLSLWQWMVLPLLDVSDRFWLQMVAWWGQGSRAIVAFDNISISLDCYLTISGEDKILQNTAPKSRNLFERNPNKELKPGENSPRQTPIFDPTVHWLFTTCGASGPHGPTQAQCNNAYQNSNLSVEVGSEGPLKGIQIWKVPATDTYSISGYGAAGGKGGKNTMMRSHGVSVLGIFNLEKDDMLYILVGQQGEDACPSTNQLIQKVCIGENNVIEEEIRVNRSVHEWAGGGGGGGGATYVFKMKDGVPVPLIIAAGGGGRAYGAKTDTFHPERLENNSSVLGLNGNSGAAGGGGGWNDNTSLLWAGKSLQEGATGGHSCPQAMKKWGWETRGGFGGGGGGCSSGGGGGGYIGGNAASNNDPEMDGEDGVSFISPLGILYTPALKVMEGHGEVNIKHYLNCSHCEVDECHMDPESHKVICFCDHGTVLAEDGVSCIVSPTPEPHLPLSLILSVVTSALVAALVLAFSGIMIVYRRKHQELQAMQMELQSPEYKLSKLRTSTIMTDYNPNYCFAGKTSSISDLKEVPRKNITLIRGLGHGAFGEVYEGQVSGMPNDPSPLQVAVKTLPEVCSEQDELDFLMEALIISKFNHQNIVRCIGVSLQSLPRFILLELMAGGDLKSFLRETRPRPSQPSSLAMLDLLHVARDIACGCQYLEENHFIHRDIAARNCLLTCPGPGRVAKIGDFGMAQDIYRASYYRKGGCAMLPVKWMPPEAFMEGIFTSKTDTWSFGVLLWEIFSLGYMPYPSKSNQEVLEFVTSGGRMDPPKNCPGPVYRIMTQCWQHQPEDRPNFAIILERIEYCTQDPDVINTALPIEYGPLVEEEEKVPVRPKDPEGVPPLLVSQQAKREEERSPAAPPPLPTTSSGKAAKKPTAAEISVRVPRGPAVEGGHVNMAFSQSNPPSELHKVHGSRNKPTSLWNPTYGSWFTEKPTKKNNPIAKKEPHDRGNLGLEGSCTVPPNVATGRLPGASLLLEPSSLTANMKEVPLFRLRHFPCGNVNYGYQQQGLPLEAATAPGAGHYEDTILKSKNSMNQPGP
assay_overview: Kinase profiling in a biochemical assay panel (mobility shift assays and ELISA), %-inhibition at 1 μM; selectivity entropy
run_parameters: kinase ALK(R1275Q); 1 μM compound
%-inhibition, ALK(R1275Q) for assorted compounds

{"smiles_entry": "CO[C@H]1C[C@@H]2CC[C@@H](C)[C@@](O)(O2)C(=O)C(=O)N2CCCC[C@H]2C(=O)O[C@H]([C@H](C)C[C@@H]2CC[C@@H](OC(=O)C(C)(CO)CO)[C@H](OC)C2)CC(=O)[C@H](C)/C=C(\\C)[C@@H](O)[C@@H](OC)C(=O)[C@H](C)C[C@H](C)/C=C/C=C/C=C/1C", "%-inhibition, ALK(R1275Q)": "-1.39%"}
{"smiles_entry": "O=S(=O)(c1cccc2cnccc12)N1CCCNCC1", "%-inhibition, ALK(R1275Q)": "-1.83%"}
{"smiles_entry": "CNC(=O)c1cc(Oc2ccc(NC(=O)Nc3ccc(Cl)c(C(F)(F)F)c3)c(F)c2)ccn1", "%-inhibition, ALK(R1275Q)": "5%"}
